Biological target: Aromatase (Homo sapiens)
Sequence (P11511 whole entry): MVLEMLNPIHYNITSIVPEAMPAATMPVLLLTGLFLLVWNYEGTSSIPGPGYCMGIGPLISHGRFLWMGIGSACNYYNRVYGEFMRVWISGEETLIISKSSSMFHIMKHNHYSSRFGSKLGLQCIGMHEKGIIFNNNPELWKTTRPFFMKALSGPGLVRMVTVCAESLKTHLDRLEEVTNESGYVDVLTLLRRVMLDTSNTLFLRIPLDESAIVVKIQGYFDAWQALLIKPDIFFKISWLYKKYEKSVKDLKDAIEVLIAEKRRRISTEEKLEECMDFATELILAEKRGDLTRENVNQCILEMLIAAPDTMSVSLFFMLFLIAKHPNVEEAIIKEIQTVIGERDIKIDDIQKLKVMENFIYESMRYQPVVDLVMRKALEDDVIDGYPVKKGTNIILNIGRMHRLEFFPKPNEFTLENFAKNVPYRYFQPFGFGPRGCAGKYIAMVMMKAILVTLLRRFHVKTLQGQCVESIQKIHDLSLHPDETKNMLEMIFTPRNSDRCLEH
Decide by inhibition at 0.25 µM: equal to or exceeding 70% means 1, less means 0.

Reference set, count: 5
> print(dat)
                                   molecule  cat
1  C[C@]12CC[C@H]3[C@@H]([C@H](CCc4ccccc4)CC4=CC(=O)CC[C@@]43C)[C@@H]1CC[C@@H]2O    0
2  CC12CCC3C(C1CCC2=O)[C@H](Cc1ccccc1)CC1=CC(=O)CCC13C (some centres not stated)    1
3  C[C@]12CCC(=O)C=C1C[C@@H](Sc1ccc(N)cc1)[C@@H]1[C@@H]2CC[C@]2(C)C(=O)CC[C@@H]12    1
4  C[C@]12CC[C@H]3[C@@H]([C@H](Cc4ccccc4)CC4=CC(=O)CC[C@@]43C)[C@@H]1CC[C@@H]2O    1
5  C[C@]12CCC(=O)C=C1C[C@H](CCc1ccccc1)[C@@H]1[C@@H]2CC[C@]2(C)C(=O)CC[C@@H]12    0

For the next question, use this molecule.
Check if inhibition at 0.25 µM >= 70% (inclusive). Item: CC12CCC3C(C1CCC2=O)[C@H](CCc1ccccc1)CC1=CC(=O)CCC13C (some centres not stated) 1
